All values here come from patent US20230365589A1.

Molecular target: DYRK2 (Homo sapiens, UniProt Q92630)
Construct: purchased Carna Biosciences, Inc. 04-132
Sequence (Q92630 74-601 limits assumed): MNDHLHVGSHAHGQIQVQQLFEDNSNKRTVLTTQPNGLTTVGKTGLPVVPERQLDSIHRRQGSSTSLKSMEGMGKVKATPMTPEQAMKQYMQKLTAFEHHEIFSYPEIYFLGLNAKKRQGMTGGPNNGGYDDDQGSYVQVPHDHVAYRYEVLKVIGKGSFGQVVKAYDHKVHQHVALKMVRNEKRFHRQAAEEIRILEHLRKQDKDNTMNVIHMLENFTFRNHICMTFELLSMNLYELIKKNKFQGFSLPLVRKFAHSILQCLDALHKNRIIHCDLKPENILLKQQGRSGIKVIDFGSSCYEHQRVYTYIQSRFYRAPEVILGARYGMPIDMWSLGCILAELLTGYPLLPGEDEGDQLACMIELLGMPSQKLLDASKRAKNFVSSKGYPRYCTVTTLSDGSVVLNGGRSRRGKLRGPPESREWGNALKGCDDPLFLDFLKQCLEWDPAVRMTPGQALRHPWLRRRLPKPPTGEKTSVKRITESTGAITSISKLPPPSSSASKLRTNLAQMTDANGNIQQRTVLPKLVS
Assay: Inhibition test on activity of DYRK family, mobility shift assay (MSA): DYRK2
Format: biochemical
Settings: MSA, FITC-labeled DYRKtide peptide, ATP 40 μM; read-out: Inhibitory activity DYRK 2 (IC50 class)
parameter: IC50

The following compounds have reported results that may help.
Challenge: GET /values?readout=IC50&system=DYRK2 (Homo sapiens, UniProt Q92630)&item= O=C1N[C@H]2CO[C@@H](CF)C[C@H]2N1c1nc2c3c(ccc2s1)OCO3
Response given: 10 to 100 nM

Challenge: GET /values?readout=IC50&system=DYRK2 (Homo sapiens, UniProt Q92630)&item= O=C1N[C@H]2CCCNC[C@H]2N1c1nc2c3c(ccc2s1)OCO3
Response given: ≥ 1000 nM

Challenge: GET /values?readout=IC50&system=DYRK2 (Homo sapiens, UniProt Q92630)&item= O=C1N[C@H]2COCC[C@H]2N1c1nc2c3c(ccc2s1)OCO3
Response given: 100 to 1000 nM

Query compound follows.
Challenge: GET /values?readout=IC50&system=DYRK2 (Homo sapiens, UniProt Q92630)&item= O=C1N[C@H]2CCN(C3COC3)C[C@H]2N1c1nc2c3c(ccc2s1)OCC3 (racemic)
Response given: ≥ 1000 nM

* * *

Recorded IC50 values for a group of compounds are listed next.
Target: DYRK1A (Homo sapiens, UniProt Q13627)
Construct: purchased Carna Biosciences, Inc. 04-130
Assay: Inhibition test on activity of DYRK family, mobility shift assay (MSA): DYRK1A
Format: biochemical
Conditions: MSA, FITC-labeled DYRKtide peptide, ATP 100 μM; read-out: Inhibitory activity DYRK 1A (IC50 class)

The following compounds have reported results that may help.
Challenge: Tell me the measured IC50 of O=C1N[C@H]2CCN(C3CC3)C[C@H]2N1c1nc2c3c(ccc2s1)OCO3 (single isomer, unassigned) , please.
Response given: < 10 nM

Challenge: Tell me the measured IC50 of CN1C[C@@H]2NC(=O)N(c3nc4c5c(ccc4s3)OCC5)[C@@H]2[C@@H](F)C1 , please.
Response given: 100 to 1000 nM

Challenge: Tell me the measured IC50 of CN1C[C@@H](F)[C@@H]2NC(=O)N(c3nc4c5c(ccc4s3)OCC5)[C@@H]2C1 , please.
Response given: 10 to 100 nM

Challenge: Tell me the measured IC50 of O=C1N[C@H]2CN(C3CC3)CC[C@H]2N1c1nc2c3c(ccc2s1)OCCO3 , please.
Response given: 100 to 1000 nM

Challenge: Tell me the measured IC50 of C[C@@H]1NC(=O)N(c2nc3c4c(ccc3s2)OCC4)[C@@H]1CN1CCOCC1 , please.
Response given: < 10 nM

***
Challenge: Tell me the measured IC50 of COCCN1CCC2C(C1)NC(=O)N2c1nc2c3c(ccc2s1)OCC3 (centres unmarked) , please.
Response given: 100 to 1000 nM

Challenge: Tell me the measured IC50 of O=C1N[C@@H]2[C@@H](CO[C@@H]2CO)N1c1nc2c3c(ccc2s1)OCC3 , please.
Response given: 10 to 100 nM

Challenge: Tell me the measured IC50 of CN1CC[C@@H]2[C@H](C1)NC(=O)N2c1nc2c3c(ccc2s1)OCCO3 (racemic) , please.
Response given: 10 to 100 nM
